# System: MCAO/R rats
# Test Method Notes: Therapeutic administration (i.v.) in middle cerebral artery occlusion/reperfusion (MCAO/R) rats
# Type: in vivo, rat
# Assay Context: high dose 12 mg/kg i.v., once a day for 3 days; mean ± SD, n = 8
Clotting time by entry:

- Compound String: "O=C(O)[C@@H]1C[C@H]1c1ccc(Cn2ccnc2)cc1"
  Clotting time [s]: 151.19
- Compound String: "O=C(O)[C@@H]1C[C@H]1c1ccc(Cn2cnc(F)c2)cc1F"
  Clotting time [s]: 163.00
- Compound String: "O=C(O)[C@@H]1C[C@H]1c1ccc(Cn2ccnc2)c(F)c1"
  Clotting time [s]: 163.13
- Compound String: "O=C(O)[C@@H]1C[C@H]1c1ccc(Cn2cnc(F)c2)c(Cl)c1"
  Clotting time [s]: 147.25
- Compound String: "O=C(O)[C@@H]1C[C@H]1c1ccc(Cn2cnc(Cl)c2)cc1F"
  Clotting time [s]: 163.63
- Compound String: "O=C(O)[C@@H]1C[C@H]1c1ccc(Cn2cnc(Cl)c2)c(Cl)c1"
  Clotting time [s]: 152.81

###

# Test Method Notes: Pharmacokinetics in SD rats after single IV and PO administration, plasma
# Type: in vivo
# Assay Context: Sprague-Dawley (SD); rat plasma; PO 6 mg/kg
# Experimental: The experimental method of administration by gavage injection in rats: SD rats weighing 180 to 220 g were fasted for 12 hours prior to the experiment, with free access to water. After administration, food and water were withheld for 4 hours. After this 4-hour period, the rats were allowed free access to water, and food was provided after 8 hours. The drugs were administered at a set dose. […]
Label satisfied when half-life < 3 h; otherwise not satisfied.

- Compound: "O=C(O)/C=C/c1ccc(Cn2ccnc2)cc1 [Ozagrel, reference compound]"
  Answer Label: "satisfied"
- Compound: "O=C(O)[C@@H]1C[C@H]1c1ccc(Cn2cnc(F)c2)c(Cl)c1"
  Answer Label: "not satisfied"
- Compound: "O=C(O)[C@@H]1C[C@H]1c1ccc(Cn2ccnc2)cc1"
  Answer Label: "satisfied"
- Compound: "O=C(O)[C@@H]1C[C@H]1c1ccc(Cn2ccnc2)c(F)c1"
  Answer Label: "satisfied"
- Compound: "O=C(O)[C@@H]1C[C@H]1c1ccc(Cn2cnc(Cl)c2)c(Cl)c1"
  Answer Label: "not satisfied"

###

# Test Method Notes: Blood-brain barrier (BBB) study in SD rats after single IV and PO administration, brain
# Type: in vivo
# Assay Context: Sprague-Dawley (SD); rat brain; IV 1 mg/kg

- Compound: "O=C(O)/C=C/c1ccc(Cn2ccnc2)cc1 [Ozagrel, reference compound]"
  Value Units: "ng/g"
  Cmax: 27.6
- Compound: "O=C(O)[C@@H]1C[C@H]1c1ccc(Cn2ccnc2)cc1"
  Value Units: "ng/g"
  Cmax: 36
- Compound: "O=C(O)[C@@H]1C[C@H]1c1ccc(Cn2ccnc2)c(F)c1"
  Value Units: "ng/g"
  Cmax: 41.2
- Compound: "O=C(O)[C@@H]1C[C@H]1c1ccc(Cn2cnc(F)c2)cc1F"
  Value Units: "ng/g"
  Cmax: 84.1
- Compound: "O=C(O)[C@@H]1C[C@H]1c1ccc(Cn2cnc(F)c2)c(Cl)c1"
  Value Units: "ng/g"
  Cmax: 75.5
- Compound: "O=C(O)[C@@H]1C[C@H]1c1ccc(Cn2cnc(Cl)c2)c(Cl)c1"
  Value Units: "ng/g"
  Cmax: 57.5

###

# Test Method Notes: Blood-brain barrier (BBB) study in SD rats after single IV and PO administration, brain
# Format: in vivo
# Assay Context: rat brain; IV 1 mg/kg
Kind request: treat 20 ng·h/g as inclusive, so AUC(0−∞) at 20 ng·h/g or higher is Condition met, anything lower is Condition not met.

- Compound: "O=C(O)[C@@H]1C[C@H]1c1ccc(Cn2cnc(F)c2)cc1F"
  Answer Label: "Condition met"
- Compound: "O=C(O)[C@@H]1C[C@H]1c1ccc(Cn2cnc(F)c2)c(Cl)c1"
  Answer Label: "Condition met"
- Compound: "O=C(O)[C@@H]1C[C@H]1c1ccc(Cn2ccnc2)c(F)c1"
  Answer Label: "Condition met"
- Compound: "O=C(O)[C@@H]1C[C@H]1c1ccc(Cn2cnc(Cl)c2)c(Cl)c1"
  Answer Label: "Condition met"
- Compound: "O=C(O)/C=C/c1ccc(Cn2ccnc2)cc1 [Ozagrel, reference compound]"
  Answer Label: "Condition not met"

###

# Test Method Notes: Blood-brain barrier (BBB) study in SD rats after single IV and PO administration, brain
# Format: in vivo
# Assay Context: Sprague-Dawley (SD); rat brain; PO 6 mg/kg

- Molecule: "O=C(O)[C@@H]1C[C@H]1c1ccc(Cn2ccnc2)cc1"
  Value Units: "h"
  half-life: 0.77
- Molecule: "O=C(O)[C@@H]1C[C@H]1c1ccc(Cn2cnc(F)c2)cc1F"
  Value Units: "h"
  half-life: 2.82
- Molecule: "O=C(O)[C@@H]1C[C@H]1c1ccc(Cn2cnc(F)c2)c(Cl)c1"
  Value Units: "h"
  half-life: 8.36
- Molecule: "O=C(O)[C@@H]1C[C@H]1c1ccc(Cn2ccnc2)c(F)c1"
  Value Units: "h"
  half-life: 1.7
- Molecule: "O=C(O)/C=C/c1ccc(Cn2ccnc2)cc1 [Ozagrel, reference compound]"
  Value Units: "h"
  half-life: 0.4
- Molecule: "O=C(O)[C@@H]1C[C@H]1c1ccc(Cn2cnc(Cl)c2)c(Cl)c1"
  Value Units: "h"
  half-life: 19.7

###

# Test Method Notes: Blood-brain barrier (BBB) study in SD rats after single IV and PO administration, brain
# Assay type: in vivo
# Assay Context: rat brain; PO 6 mg/kg
AUC(0−t) by entry:

- Compound: "O=C(O)[C@@H]1C[C@H]1c1ccc(Cn2cnc(F)c2)cc1F [Compound 17]"
  Value Units: "ng·h/g"
  AUC(0−t): 2329.55
- Compound: "O=C(O)/C=C/c1ccc(Cn2ccnc2)cc1 [Ozagrel, reference compound]"
  Value Units: "ng·h/g"
  AUC(0−t): 35.86
- Compound: "O=C(O)[C@@H]1C[C@H]1c1ccc(Cn2ccnc2)c(F)c1 [Compound 15]"
  Value Units: "ng·h/g"
  AUC(0−t): 815.87
- Compound: "O=C(O)[C@@H]1C[C@H]1c1ccc(Cn2cnc(F)c2)c(Cl)c1 [Compound 18]"
  Value Units: "ng·h/g"
  AUC(0−t): 6454.78
- Compound: "O=C(O)[C@@H]1C[C@H]1c1ccc(Cn2cnc(Cl)c2)c(Cl)c1 [Compound 11]"
  Value Units: "ng·h/g"
  AUC(0−t): 7014.55
- Compound: "O=C(O)[C@@H]1C[C@H]1c1ccc(Cn2ccnc2)cc1 [Compound 19]"
  Value Units: "ng·h/g"
  AUC(0−t): 289.35

###

# Test Method Notes: Blood-brain barrier (BBB) study in SD rats after single IV and PO administration, brain
# Type: in vivo
# Assay Context: Sprague-Dawley (SD); rat brain; IV 1 mg/kg; read-out: MRT(0−t)
# Description: Effect Example 3: Pharmacokinetic and blood-brain barrier (BBB) studies of compounds after single intravenous (IV) and oral (PO) administration in SD rats […] Among them, Cmax and Tmax are measured values, the elimination rate constant k of the tail section of the C-t curve is obtained from the linear regression of LnC-t, and the value of AUC0-4 is calculated by the trapezoidal area method, and the area under the curve from 0 to ∞ time is AUC=AUC0-4+Ct/k.
Label t when MRT last < 0.3 h; otherwise f.

- Molecule: "O=C(O)[C@@H]1C[C@H]1c1ccc(Cn2cnc(F)c2)cc1F [Compound 17]"
  Answer Label: "f"
- Molecule: "O=C(O)[C@@H]1C[C@H]1c1ccc(Cn2ccnc2)c(F)c1 [Compound 15]"
  Answer Label: "f"
- Molecule: "O=C(O)/C=C/c1ccc(Cn2ccnc2)cc1 [Ozagrel, reference compound]"
  Answer Label: "t"
- Molecule: "O=C(O)[C@@H]1C[C@H]1c1ccc(Cn2cnc(F)c2)c(Cl)c1 [Compound 18]"
  Answer Label: "f"
- Molecule: "O=C(O)[C@@H]1C[C@H]1c1ccc(Cn2ccnc2)cc1 [Compound 19]"
  Answer Label: "f"
- Molecule: "O=C(O)[C@@H]1C[C@H]1c1ccc(Cn2cnc(Cl)c2)c(Cl)c1 [Compound 11]"
  Answer Label: "f"

###

MRT inf by entry:
# Test Method Notes: Pharmacokinetics in SD rats after single IV and PO administration, plasma
# Type: in vivo
# Assay Context: Sprague-Dawley (SD); rat plasma; IV 1 mg/kg; read-out: MRT(0−∞)

- Molecule: "O=C(O)[C@@H]1C[C@H]1c1ccc(Cn2cnc(Cl)c2)c(Cl)c1"
  MRT inf [h]: 50.1
- Molecule: "O=C(O)[C@@H]1C[C@H]1c1ccc(Cn2ccnc2)cc1"
  MRT inf [h]: 0.51
- Molecule: "O=C(O)[C@@H]1C[C@H]1c1ccc(Cn2cnc(F)c2)c(Cl)c1"
  MRT inf [h]: 14.3
- Molecule: "O=C(O)/C=C/c1ccc(Cn2ccnc2)cc1 [Ozagrel, reference compound]"
  MRT inf [h]: 0.13
- Molecule: "O=C(O)[C@@H]1C[C@H]1c1ccc(Cn2ccnc2)c(F)c1"
  MRT inf [h]: 1.16
- Molecule: "O=C(O)[C@@H]1C[C@H]1c1ccc(Cn2cnc(F)c2)cc1F"
  MRT inf [h]: 3.91
